Just for reference, paper PMC8309005 is where these values come from.

tested.system: PI3K b (Homo sapiens)
Sequence (P42338 whole entry): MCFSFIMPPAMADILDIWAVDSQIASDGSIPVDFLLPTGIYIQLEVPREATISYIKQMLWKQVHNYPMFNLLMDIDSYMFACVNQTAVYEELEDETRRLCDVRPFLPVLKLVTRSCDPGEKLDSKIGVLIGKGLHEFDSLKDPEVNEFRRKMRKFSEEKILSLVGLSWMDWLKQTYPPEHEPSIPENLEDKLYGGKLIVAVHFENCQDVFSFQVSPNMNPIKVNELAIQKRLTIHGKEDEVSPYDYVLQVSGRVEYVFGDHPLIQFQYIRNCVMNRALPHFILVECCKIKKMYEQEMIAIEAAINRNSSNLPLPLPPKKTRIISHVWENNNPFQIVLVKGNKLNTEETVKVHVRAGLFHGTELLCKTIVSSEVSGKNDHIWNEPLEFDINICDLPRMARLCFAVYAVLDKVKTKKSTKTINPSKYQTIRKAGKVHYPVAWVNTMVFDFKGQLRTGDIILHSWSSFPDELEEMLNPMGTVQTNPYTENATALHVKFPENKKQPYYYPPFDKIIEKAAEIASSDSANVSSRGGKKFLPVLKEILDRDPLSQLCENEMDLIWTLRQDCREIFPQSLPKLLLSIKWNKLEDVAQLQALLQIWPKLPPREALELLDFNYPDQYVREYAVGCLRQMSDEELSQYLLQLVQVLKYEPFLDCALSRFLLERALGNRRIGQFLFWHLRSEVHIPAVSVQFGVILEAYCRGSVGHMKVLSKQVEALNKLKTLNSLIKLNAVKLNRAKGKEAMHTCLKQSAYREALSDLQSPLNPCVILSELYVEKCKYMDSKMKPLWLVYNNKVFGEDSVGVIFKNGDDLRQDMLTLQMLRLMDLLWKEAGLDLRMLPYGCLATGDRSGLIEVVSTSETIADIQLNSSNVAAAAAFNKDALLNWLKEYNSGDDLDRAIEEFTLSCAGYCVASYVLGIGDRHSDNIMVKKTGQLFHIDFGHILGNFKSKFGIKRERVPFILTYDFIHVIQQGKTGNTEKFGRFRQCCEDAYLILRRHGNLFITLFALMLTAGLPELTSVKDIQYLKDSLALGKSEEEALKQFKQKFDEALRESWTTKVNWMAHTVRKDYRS
Sequence (P27986 whole entry partner): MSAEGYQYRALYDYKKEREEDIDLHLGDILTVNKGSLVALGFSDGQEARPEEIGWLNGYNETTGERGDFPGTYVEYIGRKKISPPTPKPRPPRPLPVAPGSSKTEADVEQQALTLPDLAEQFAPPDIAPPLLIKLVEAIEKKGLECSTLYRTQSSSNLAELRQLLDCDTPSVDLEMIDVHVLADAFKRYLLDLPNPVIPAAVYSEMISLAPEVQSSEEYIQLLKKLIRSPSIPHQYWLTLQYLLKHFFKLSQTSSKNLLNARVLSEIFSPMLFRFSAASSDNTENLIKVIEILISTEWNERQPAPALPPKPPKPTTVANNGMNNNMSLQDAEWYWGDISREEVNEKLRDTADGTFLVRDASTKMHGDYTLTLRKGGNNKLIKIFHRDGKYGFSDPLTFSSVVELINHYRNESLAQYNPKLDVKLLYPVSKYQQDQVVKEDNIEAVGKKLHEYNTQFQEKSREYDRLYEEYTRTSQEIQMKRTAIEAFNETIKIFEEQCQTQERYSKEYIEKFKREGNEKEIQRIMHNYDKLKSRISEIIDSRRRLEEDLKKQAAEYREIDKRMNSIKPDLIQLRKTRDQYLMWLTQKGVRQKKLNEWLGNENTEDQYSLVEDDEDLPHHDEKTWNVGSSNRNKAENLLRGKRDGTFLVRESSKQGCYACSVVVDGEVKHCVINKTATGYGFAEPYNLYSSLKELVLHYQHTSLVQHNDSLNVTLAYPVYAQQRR
procedure.text: Lipid kinase screening (ADP-Glo), PI3K b
Assay type: biochemical
Some compounds, each annotated with its measured inhibition at 10 µM.
measured.attribute: inhibition at 10 µM (%)

[
  {
    "compound": "CC(=O)NCCCCC(NC(=O)OC(C)(C)C)C(=O)N1CCN(c2cc[n+](CCCCCCCCCCCCCC[n+]3ccc(N(C)C)cc3)cc2)CC1 (centres unmarked) [CK145]",
    "measure.unit": "%",
    "value.reported": -15.8
  },
  {
    "compound": "CN(C)c1cc[n+](CCCCCCCCCCCCCC[n+]2ccc(N3CCNCC3)cc2)cc1 [CK146]",
    "measure.unit": "%",
    "value.reported": -45.9
  },
  {
    "compound": "CN(C)c1cc[n+](CCCCCCCCCCCCCC[n+]2ccc(N3CCN(C(=O)CSC4CC(=O)N(CCC(=O)NCCCCCC(=O)NCCCCC(NC(=O)NC(CCC(=O)O)C(=O)O)C(=O)O)C4=O)CC3)cc2)cc1 (centres unmarked) [CK147]",
    "measure.unit": "%",
    "value.reported": -0.1
  },
  {
    "compound": "CN(C)c1cc[n+](CCCCCCCCCCCCCC[n+]2ccc(N(C)C)cc2)cc1.[Br-].[Br-] [CK14, reference compound]",
    "measure.unit": "%",
    "value.reported": -36.2
  },
  {
    "compound": "CN(C)c1cc[n+](CCCCCCCCCCCC[n+]2ccc(N(C)C)cc2)cc1 [ICL-CCIC-0019]",
    "measure.unit": "%",
    "value.reported": -39.6
  }
]
